Molecular target: Human recombinant MMP-14 (Homo sapiens)
Construct: The catalytic domain enzyme was expressed in E. coli inclusion bodies, solubilized in urea; made in house
Experiment: In vitro MMP inhibition, Ki determination (fluorogenic substrate II)
Assay type: biochemical
Conditions: value in parentheses
reported_metric: Ki

Worked set:
O=C(NO)C1(S(=O)(=O)c2ccc(OCCc3ccc(-c4ccc(O)cc4)cc3)cc2)CCOCC1: > 10 µM
O=C(NO)C1(S(=O)(=O)c2ccc(OCCCc3cccc(-c4cccs4)c3)cc2)CCOCC1: > 10 µM
O=C(NO)C1(S(=O)(=O)c2ccc(OCCCc3cccc(-c4ccsc4)c3)cc2)CCOCC1: > 10 µM
COCCN1CCC(C(=O)NO)(S(=O)(=O)c2ccc(OCCCc3cccc(-c4ccc(C#N)cc4)c3)cc2)CC1: 4.08 µM
O=C(NO)C1(S(=O)(=O)c2ccc(OCCCc3ccc(F)c(-c4ccccc4)c3)cc2)CCOCC1: > 10 µM

Parameter requested: Ki. Apply to each item below.
1. O=C(NO)C1(S(=O)(=O)c2ccc(OCCc3ccc(-c4cccc(O)c4)cc3)cc2)CCOCC1
2. O=C(NO)C1(S(=O)(=O)c2ccc(OCCCc3cncc(-c4ccccc4)c3)cc2)CCOCC1
3. O=C(NO)C1(S(=O)(=O)c2ccc(OCCCc3cccc(-c4ccccc4O)c3)cc2)CCOCC1
4. COCCN1CCC(C(=O)NO)(S(=O)(=O)c2ccc(OCCc3cccc(-c4ccc(F)c(F)c4)c3)cc2)CC1
5. O=C(NO)C1(S(=O)(=O)c2ccc(OCCCc3cc(-c4ccc(OC(F)(F)F)cc4)cs3)cc2)CCOCC1
6. O=C(NO)C1(S(=O)(=O)c2ccc(OCCCc3cccc(-c4ccc([N+](=O)[O-])cc4)c3)cc2)CCOCC1

["> 10 µM", "> 10 µM", "> 10 µM", "> 10 µM", "> 10 µM", "> 10 µM"]

====

Target: Human recombinant MMP-2 (Homo sapiens, UniProt P08253)
Construct: made in house; host or cells: MMP-2-transfected p2AHT2 cells
Sequence (P08253 110-660): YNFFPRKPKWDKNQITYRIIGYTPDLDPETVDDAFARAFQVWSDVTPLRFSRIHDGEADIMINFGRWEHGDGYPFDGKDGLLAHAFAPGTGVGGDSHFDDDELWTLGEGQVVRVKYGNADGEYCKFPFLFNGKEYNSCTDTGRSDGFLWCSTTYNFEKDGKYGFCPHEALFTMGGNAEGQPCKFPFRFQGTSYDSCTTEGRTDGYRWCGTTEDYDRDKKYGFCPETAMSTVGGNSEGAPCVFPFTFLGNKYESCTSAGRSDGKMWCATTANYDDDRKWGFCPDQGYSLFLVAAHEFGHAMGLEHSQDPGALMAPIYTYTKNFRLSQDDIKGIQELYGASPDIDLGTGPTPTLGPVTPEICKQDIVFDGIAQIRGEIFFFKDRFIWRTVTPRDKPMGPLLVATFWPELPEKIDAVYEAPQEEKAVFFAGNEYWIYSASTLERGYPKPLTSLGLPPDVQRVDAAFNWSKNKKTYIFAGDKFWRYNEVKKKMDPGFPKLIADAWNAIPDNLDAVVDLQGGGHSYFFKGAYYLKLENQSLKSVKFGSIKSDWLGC
Experiment: In vitro MMP inhibition, IC50 determination (fluorogenic substrate I)
Assay type: biochemical
Details: value outside parenthesis
Entries whose IC50 is below 80 nM take MET; entries at or above 80 nM take NOT MET.

// known answers, use as guide
O=C(NO)C1(S(=O)(=O)c2ccc(OCCCc3nnc(-c4ccc(OC(F)(F)F)cc4)o3)cc2)CCOCC1: NOT MET
O=C(CCCOc1ccc(S(=O)(=O)C2(C(=O)NO)CCN(C3CC3)CC2)cc1)C1CCC(O)(c2ccc(Cl)cc2)CC1 (stereo not drawn): MET
Cc1cc(C(=O)CCCCOc2ccc(S(=O)(=O)C3(C(=O)NO)CCN(C4CC4)CC3)cc2)ccc1OC(C)C: NOT MET
O=C(NO)C1(S(=O)(=O)c2ccc(OCCCc3nnc(Cl)o3)cc2)CCOCC1: MET
O=C(NO)C1(S(=O)(=O)c2ccc(OCCCc3cccc(-c4ccc(F)cc4)c3)cc2)CCN(C2CC2)CC1: NOT MET

A record lists "O=C(NO)C1(S(=O)(=O)c2ccc(OCCCc3cccc(-c4cccc(F)c4)c3)cc2)CCOCC1" . Is its IC50 below 80 nM? NOT MET

====

Biological target: Human recombinant MMP-2 (Homo sapiens)
Construct: made in house; host or cells: MMP-2-transfected p2AHT2 cells
Experiment: In vitro MMP inhibition, Ki determination (fluorogenic substrate II)
Assay type: biochemical
Settings: substrate (II) 4 μM, 1 hr room temperature; apparent Ki, values in parenthesis
pKi: −log10 of the molar value.
Threshold check on pKi: at or above 6 gives criterion met, strictly below gives criterion not met.

Sample answers from the record:
NC(=O)c1cccc(OCCOc2ccc(S(=O)(=O)C3(C(=O)NO)CCOCC3)cc2)c1: criterion met
COCCN1CCC(C(=O)NO)(S(=O)(=O)c2ccc(OCCc3cccc(-c4ccccc4)c3)cc2)CC1: criterion met
O=C(NO)C1(S(=O)(=O)c2ccc(OCCCn3nnc(-c4ccc(OC(F)(F)F)cc4)n3)cc2)CCN(C2CC2)CC1: criterion met
O=C(NO)C1(S(=O)(=O)c2ccc(OCCc3cccc(-c4ccccn4)c3)cc2)CCOCC1: criterion met
COCCN1CCC(C(=O)NO)(S(=O)(=O)c2ccc(OCCCn3nnc(-c4ccc(OC(F)(F)F)cc4)n3)cc2)CC1: criterion met

Quick check: does "O=C(NO)C1(S(=O)(=O)c2ccc(OCCCc3cccc(-c4ccc(F)cc4)c3)cc2)CCOCC1" have pKi greater than or equal to 6? criterion not met

====

Task for the reader: assign each of the following molecules its reported pKi.
Biological target: Human recombinant MMP-2 (Homo sapiens, UniProt P08253)
Construct: made in house; host or cells: MMP-2-transfected p2AHT2 cells
Experiment: In vitro MMP inhibition, Ki determination (fluorogenic substrate II)
Format: biochemical
Conditions: value in parentheses
One number for each entry, as −log10 of the molar value.

Past entries and their recorded results:
O=C(NO)C1(S(=O)(=O)c2ccc(OCCCc3cc(-c4ccc(OC(F)(F)F)cc4)cs3)cc2)CCOCC1 [Example 608]: 6.14
O=C(NO)C1(S(=O)(=O)c2ccc(OCCc3ccccn3)cc2)CCOCC1 [Example 556]: 7.17
O=C(NO)C1(S(=O)(=O)c2ccc(OCCCOCc3ccncc3)cc2)CCOCC1 [Example 555]: 8.47
CN1CCC(C(=O)NO)(S(=O)(=O)c2ccc(SCCNC(=O)c3cc4ccccc4o3)cc2)CC1 [Example 536]: 6.13
O=C(NCCSc1ccc(S(=O)(=O)C2(C(=O)NO)CCN(C3CC3)CC2)cc1)c1cc2ccccc2o1 [Example 542]: 6.63
COCCN1CCC(C(=O)NO)(S(=O)(=O)c2ccc(OCCc3cccc(-c4ccc(F)cc4)c3)cc2)CC1 [Example 544]: 6.52
O=C(NCCOc1ccc(S(=O)(=O)C2(C(=O)NO)CCOCC2)cc1)c1c[nH]c2ccccc12 [Example 562]: 6.62
O=C(NO)C1(S(=O)(=O)c2ccc(OCCCc3cccc(-c4ccc5c(c4)OCCO5)c3)cc2)CCOCC1 [Example 627]: 5.40

For each of the molecules below, state pKi.
1. O=C(NO)C1(S(=O)(=O)c2ccc(OCCCc3cccc(-c4ccccc4O)c3)cc2)CCOCC1 [Example 636]
2. O=C(NO)C1(S(=O)(=O)c2ccc(OCCCc3cccc(-c4cccc5ccccc45)c3)cc2)CCOCC1 [Example 638]

1. 6.28
2. 5.09

====

Field: IC50. Provide a value for each of the compounds that follow.
Biological target: Human recombinant MMP-14 (Homo sapiens, UniProt P50281)
Construct: The catalytic domain enzyme was expressed in E. coli inclusion bodies, solubilized in urea; made in house
Experiment: In vitro MMP inhibition, IC50 determination (fluorogenic substrate I)
Assay type: biochemical
Details: value outside parentheses (Ki in parenthesis)

Below, each entry is followed by its recorded IC50 result.
Cc1ccc(C(=O)NCCCOc2ccc(S(=O)(=O)C3(C(=O)NO)CCOCC3)cc2)c(C)c1: > 10 µM
CN(C)c1ccc(C(=O)NCCCOc2ccc(S(=O)(=O)C3(C(=O)NO)CCN(C4CC4)CC3)cc2)cc1: > 10 µM

Now look at this one.
Looking for the measured IC50 of "COc1ccc(NC(=O)NCCOc2ccc(S(=O)(=O)C3(C(=O)NO)CCOCC3)cc2)cc1" , can you help? > 10 µM

====

Target: Human recombinant MMP-13 (Homo sapiens, UniProt P45452)
Construct: made in house; host or cells: baculovirus / insect cells
Assay: In vitro MMP inhibition, Ki determination (fluorogenic substrate II)
Assay type: biochemical
Settings: value in parenthesis
Consider the following compounds; for each one, report its log10 Ki.
Give log10 of Ki, with Ki taken in nM.

Here is how some compounds turned out for log10 Ki.
CCc1ccccc1-c1noc(CCCOc2ccc(S(=O)(=O)C3(C(=O)NO)CCN(CCOC)CC3)cc2)n1: 0.20
O=C(NO)C1(S(=O)(=O)c2ccc(OCCOc3cccc(-c4ccccc4)c3)cc2)CCOCC1: 0.60
Cc1cc(-c2cccc(CCCOc3ccc(S(=O)(=O)C4(C(=O)NO)CCOCC4)cc3)c2)ccc1Cl: 1.80
COCCN1CCC(C(=O)NO)(S(=O)(=O)c2ccc(OCCCc3nc(-c4ccc(Br)cc4C)no3)cc2)CC1: -0.12
CN(C(=O)CCCOc1ccc(S(=O)(=O)C2(C(=O)NO)CCOCC2)cc1)c1ccc(OC(F)(F)F)cc1: 0.17
COCCN1CCC(C(=O)NO)(S(=O)(=O)c2ccc(OCCCc3nc(-c4cccc5ccccc45)no3)cc2)CC1: 0.49
O=C(NO)C1(S(=O)(=O)c2ccc(OCCCc3cccc(-c4cccnc4)c3)cc2)CCOCC1: -0.23
COCCN1CCC(C(=O)NO)(S(=O)(=O)c2ccc(OCCCc3nc(-c4ccccc4OC(F)(F)F)no3)cc2)CC1: 0.42
O=C(NO)C1(S(=O)(=O)c2ccc(OCCCc3cccc(-c4ccccn4)c3)cc2)CCOCC1: 0.24
COCCN1CCC(C(=O)NO)(S(=O)(=O)c2ccc(OCCCc3nnc(-c4ccccc4C(F)(F)F)o3)cc2)CC1: 0.23

For each of the compounds below, note its log10 Ki.
1. COCCN1CCC(C(=O)NO)(S(=O)(=O)c2ccc(OCCCc3nc(-c4ccc(OC(F)(F)F)cc4)no3)cc2)CC1
2. O=C(NO)C1(S(=O)(=O)c2ccc(OCCc3cccc(-c4ccccc4F)c3)cc2)CCOCC1

-0.22
0.35

Parameter requested: log10 Ki. Apply to each item below.
1. O=C(CCCc1ccc(S(=O)(=O)C2(C(=O)NO)CCOCC2)cc1)c1cccc(-c2ccccc2)c1
2. O=C(NO)C1(S(=O)(=O)c2ccc(OCCCc3cccc(-c4ccccc4F)c3)cc2)CCOCC1
3. O=C(NO)C1(S(=O)(=O)c2ccc(OCCCc3ccnc(-c4ccccc4)c3)cc2)CCOCC1
4. O=C(NO)C1(S(=O)(=O)c2ccc(OCCCc3cccc(-c4ccc(OC(F)(F)F)cc4)c3)cc2)CCOCC1
5. O=C(NO)C1(S(=O)(=O)c2ccc(OCCc3cccc(-c4ccc(Cl)c(Cl)c4)c3)cc2)CCOCC1
6. COCCN1CCC(C(=O)NO)(S(=O)(=O)c2ccc(OCCCc3cccc(-c4ccc(F)cc4)c3)cc2)CC1

-0.45
1.06
-0.43
1.38
1.43
-0.05

# batch size: 2; output log10 Ki per entry
1. Cc1cc(NC(=O)CCCOc2ccc(S(=O)(=O)C3(C(=O)NO)CCOCC3)cc2)ccc1OC(C)C
2. O=C(NO)C1(S(=O)(=O)c2ccc(OCCCc3cccc(-c4ccncc4)c3)cc2)CCOCC1

1: -0.26; 2: 0.07

Values were extracted from patent US20040024024A1.
